tested on: A549 NSCLC; assay: NCI tumour cell line growth inhibition, 48 h; in the data active = GI50 below about 0.43 µM; inactive = the rest
Pick from yes (active), no (inactive) when you respond.

Below are worked cases with known answers.
- SMILES DATA: "O=C(/C=C/c1ccccn1)c1ccccc1O"
  SYSTEM: "A549 NSCLC"
  CLASS ASSIGNMENT: "no"
- SMILES DATA: "COc1cc(C(=O)NC2CCN(C)CC2)ccc1Nc1ncc2c(n1)N(C1CCCC1)CC(F)(F)C(=O)N2C"
  SYSTEM: "A549 NSCLC"
  CLASS ASSIGNMENT: "yes"
- SMILES DATA: "COc1ccc(Nc2c3c4c(cccc4[nH]c2=O)C(=O)c2ccccc2-3)cc1"
  SYSTEM: "A549 NSCLC"
  CLASS ASSIGNMENT: "yes"
- SMILES DATA: "O=C(Nc1ncc(Cc2ccccc2)s1)c1ccc2c(c1)OCCO2"
  SYSTEM: "A549 NSCLC"
  CLASS ASSIGNMENT: "yes"

INPUT: Kindly provide the recorded test outcome for the following molecule: Fc1ccc(-c2ncn(C3CCNCC3)c2-c2ccnc(Oc3ccccc3)n2)cc1
OUTPUT: no

* * *

test system: SR leukemia; test: NCI tumour cell line growth inhibition, 48 h
Listing of recorded TGI by entry.
Write it as a number; the unit µM goes unstated.

- SMILES DATA: "O=c1oc2c3ccc4ccccc4c3n(CCN3CCOCC3)c2c2ccccc12"
  UNIT TEXT: "µM"
  ENDPOINT VALUE: 58.3

Entry CCOC(=O)c1ccc2c(c1)[n+](=O)c(C(=O)c1ccc3ccccc3c1)c(C(F)(F)F)n2[O-] , TGI reported as 1.6

* * *

test system: OVCAR-3 ovarian; experiment: NCI tumour cell line growth inhibition, 48 h; in the data active means GI50 below about 0.43 µM; inactive means the rest
Use one of these outcomes when replying: True = active, False = inactive

Below, 2 compounds whose answers are already recorded.
- COMPOUND: "COc1ccc(C(=O)C(c2ccc(OC)cc2)C2C(=O)Oc3ccccc32)cc1 (stereo not given)"
  SYSTEM: "OVCAR-3 ovarian"
  CLASS ASSIGNMENT: "False"
- COMPOUND: "C(=N/Nc1ncnc2nc[nH]c12)/c1ccccn1"
  SYSTEM: "OVCAR-3 ovarian"
  CLASS ASSIGNMENT: "True"

INPUT: Any idea what this test logged for CC(C)(C)C(=O)OCOP(=O)(OCOC(=O)C(C)(C)C)C1CCCN(OC(=O)c2ccccc2)C1=O (stereo not given) ?
OUTPUT: False

INPUT: // outcome(item) with item = O=C(/C=C/C=C/c1ccccc1)c1ccc(Nc2nc(Nc3ccccc3)nc(Nc3ccccc3)n2)cc1
OUTPUT: False

INPUT: Recorded call for Cc1ccc(Cl)cc1Nc1nc(C(F)(F)F)ccc1C(=O)N/N=C/c1c(Cl)cccc1Cl ?
OUTPUT: True

* * *

tested on: UACC-62 melanoma; test: NCI tumour cell line growth inhibition, 48 h
Reported TGI by item:
Return type: number; implicit unit µM.

- MOLECULE: "CCCCCCCCCCCCOC1C(CNC(=O)C2OC3OC(C)(C)OC3C2NC(=O)CN2CCN(c3ccccn3)CC2)OC2OC(C)(C)OC21 (stereo not given)"
  TEST READOUT: "TGI"
  UNIT TEXT: "µM"
  ENDPOINT VALUE: 3.05

Consider CCCn1cc(C2=C(c3cn(C)c4ccccc34)C(=O)NC2=O)c2ccccc21 . Its measured TGI is 5.94

TGI reported for this molecule Oc1ccc2ccccc2c1-c1c(Nc2ccccc2)ccc2ccccc12 : 33.6

Form field TGI, entry Nc1ncnc2c1c(-c1cccc(OCc3ccccc3)c1)cn2C1CC(CN2CCCC2)C1 (stereo not given) : 3.78
